- Test system: Fibroblast
- experiment.summary: Multiplex assay against human fibroblast
- Format: toxicity, cell-based
- measurement.setup: 12 h, 10 µM, compound concentration 10 uM, replicate 2
readout: Population Normal (%)
Give bare numbers, in %.

Examples with their reported Population Normal (%) follow.
Send back Fibroblast Population Normal (%) of Cc1ccccc1C(=O)Nc1ccc(C(=O)N2CCCC(N(C)C)c3ccccc32)cc1.Cl (centres undefined) only. 95

Write down measured Population Normal (%) (Fibroblast) for this compound. Cc1nc2ccc(Oc3ccc(F)cc3)cc2c(=O)n1C[C@H]1CCCN(C(C)C)C1.Cl 96

Answer briefly: Population Normal (%) recorded on Fibroblast for CCCC(CCC)C(=O)O 97

State Population Normal (%) (Fibroblast) of O=C(NCC(=O)N1CC[C@H](N[C@H]2CC[C@@](O)(c3ccc(-c4ncccn4)cn3)CC2)C1)c1cccc(C(F)(F)F)c1 . 94

Batch request: Population Normal (%) per item, same order as input.
1. N#Cc1c(N)nc(SCc2csc(-c3ccc(Cl)cc3)n2)c(C#N)c1-c1ccc(OCCO)cc1
2. CN(C)CCCc1cc(C(=O)Nc2ccc(-c3ccncc3)cc2)ccc1O.Cl.Cl
3. CNC[C@H](O)c1ccc(O)c(O)c1 [EPINEPHRINE]
4. CC1(COc2ccc3c(c2)ncn3-c2ccc3cccc(N4CCC(N)CC4)c3n2)COC1

[91, 95, 92, 86]

Please report Population Normal (%) with Fibroblast for item Cc1ccc(F)cc1C(=O)Nc1ccc(C(=O)N2Cc3cccn3Cc3ccccc32)c(Cl)c1 . 94
